The following molecules are shown together with reported CTLA4 MFI at 33.3 nM values.
target: huCTLA4 (Homo sapiens, UniProt P16410); assay: Flow binding to CHO cells stably expressing CTLA4; set-up: huCTLA4 and huPD-L1, full-length mammalian surface expression constructs were generated; expressed in transfected cells; host or cells: CHO cells, lentiviral transduction, sorted to >98% purity; settings: Table E20; CHO cells stably expressing CTLA4; 33.3 nM
Sequence (P16410 36-223): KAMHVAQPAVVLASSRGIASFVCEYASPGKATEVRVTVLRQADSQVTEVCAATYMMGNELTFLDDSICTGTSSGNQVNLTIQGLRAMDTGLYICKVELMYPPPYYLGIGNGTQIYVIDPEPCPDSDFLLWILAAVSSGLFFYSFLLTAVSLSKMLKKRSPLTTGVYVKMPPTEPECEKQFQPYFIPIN
Answer with the value's number alone.

H18Y/A26E/E35D/M47L (protein) VIHVTKEVKEVATLSCGYNVSVEELEQTRIYWQKDKKMVLTMMSGDLNIWPEYKNRTIFDITNNLSIVILALRPSDEGTYECVVLKYEKDAFKREHLAEVTLSVKAD : 23990

CTLA4 MFI at 33.3 nM measured on A26E/M47L/V68M/A71G (protein) VIHVTKEVKEVATLSCGHNVSVEELEQTRIYWQKEKKMVLTMMSGDLNIWPEYKNRTIFDITNNLSIMILGLRPSDEGTYECVVLKYEKDAFKREHLAEVTLSVKAD = 3227
